Recorded values, source the supplement of paper PMC11150407.

test system: MOLM1 and UCSD/AML1 (averaged); assay: cell viability relative to DMSO control (POC); higher = less growth inhibition; conditions: 1 µM; 72 h
In all, about 3,000 compounds went through this assay and about 45 (2%) showed an effect of 50% or more. The entries come from a sample that favours strong results as a whole.
Result type: cell viability (%)

>>> reported_measurement("O=C(/C=C/c1cccc(Cl)c1)c1ccc(OC(=O)c2cccc([N+](=O)[O-])c2)cc1")
102
>>> reported_measurement("COc1cc(C(=O)NCC(C)NC(=O)c2cc(OC)c(OC)c(OC)c2)cc(OC)c1OC (stereo unspecified)")
99.3
>>> reported_measurement("COc1ccc2c(c1)c(CC(=O)NCc1ccccn1)c(C)n2C(=O)c1ccc(Cl)cc1")
84.5
>>> reported_measurement("CCOC(=O)CCc1ccc2c(c1)NC(=O)CC2")
91.8
>>> reported_measurement("COc1cc(C(=O)Oc2ccccc2)cc(OC)c1OC")
108
>>> reported_measurement("Cc1ccc(C)c(NC(=O)CN2CCN(Cc3cc(=O)oc4cc(C)ccc34)CC2)c1")
98.3
>>> reported_measurement("Cc1ccc2oc(-c3ccccc3C)cc(=O)c2c1")
21.6
>>> reported_measurement("Cc1ccc2c(CN3CCN(C(=O)OC(C)(C)C)CC3)cc(=O)oc2c1")
14.9
>>> reported_measurement("COc1ccc(/C=C/C(=O)N2CCc3c([nH]c4ccccc34)C2c2ccc(OC)cc2)cc1 (stereo unspecified)")
90.2
>>> reported_measurement("O=c1cc(-c2ccccc2Cl)oc2c(Br)cc(Cl)cc12")
112
>>> reported_measurement("COc1ccc2oc(C(Cl)(Cl)Cl)cc(=O)c2c1")
3.78
>>> reported_measurement("O=c1[nH]c(=O)n(C2C[C@H](O)[C@@H](CO)O2)cc1I (stereo partly specified)")
89.8
>>> reported_measurement("COc1cc(C(=O)NCc2ccc3c(c2)OCO3)c(Br)c(OC)c1OC")
105
>>> reported_measurement("O=C(O)/C=C/c1ccc(Cl)c(Cl)c1")
97.8
>>> reported_measurement("COc1ccc(C(NS(=O)(=O)c2ccc(C)cc2)c2nccc3cc(OC)c(OC)cc23)cc1OC (stereo unspecified)")
98.4
>>> reported_measurement("COc1ccc(C2c3[nH]c4ccccc4c3CCN2C(=O)/C=C/c2ccc(OC)c(OC)c2)cc1 (stereo unspecified)")
81.9
>>> reported_measurement("CC(=O)OC1CC(n2cc(C)c(=O)[nH]c2=O)OC1CO (stereo unspecified)")
98.2
>>> reported_measurement("COc1ccc(-c2cc(=O)c3ccccc3o2)c(OC)c1")
113
>>> reported_measurement("Cc1ccc(-n2c(SCC(=O)Nc3ccccc3C(F)(F)F)nc3c(=O)[nH]cnc32)cc1")
108
>>> reported_measurement("Cc1ccc2c(C)cc(=O)[nH]c2c1C")
109
>>> reported_measurement("COc1cc(C(=O)/C=C2\\C(=O)Nc3ccccc32)cc(OC)c1OC")
21.6
>>> reported_measurement("O=C(O)CNC(=O)c1ccc(Cl)cc1")
108
>>> reported_measurement("O=c1cc(-c2ccccc2Br)oc2ccc(Cl)cc12")
110
>>> reported_measurement("COc1cc(C(=O)N2CCN(c3cccc(C)c3C)CC2)cc(OC)c1OC")
12.5
>>> reported_measurement("O=C1CC(n2c(=O)oc3ccccc32)C2COC1O2 (stereo unspecified)")
14.7
>>> reported_measurement("Cc1cc2oc(=O)cc(O)c2cc1C")
95.7
>>> reported_measurement("O=C(/C=C/c1ccccc1)c1cc(O)ccc1O")
93.7
>>> reported_measurement("O=c1cc(O)c2cc(Cl)ccc2o1")
101
>>> reported_measurement("COc1cc(O)c(C(=O)/C=C/c2ccco2)c(OC)c1")
112
>>> reported_measurement("CCOc1ccc2oc(=O)cc(CN3CCNCC3)c2c1")
90.2
>>> reported_measurement("COc1cc(OC)c(C(=O)/C=C/c2ccc(O)cc2)c(OC)c1")
100
>>> reported_measurement("Cc1ccc2oc(C(Cl)(Cl)Cl)cc(=O)c2c1")
26.6
>>> reported_measurement("CNC(=O)c1ccccc1NC(=O)C(=O)c1c[nH]c2ccccc12")
111
>>> reported_measurement("Cc1ccc2c(O)c([N+](=O)[O-])c(=O)oc2c1")
103
>>> reported_measurement("CC(Cl)COC(=O)/C=C/c1ccc([N+](=O)[O-])cc1 (stereo unspecified)")
108
>>> reported_measurement("O=c1cc(-c2ccc(Br)cc2)oc2ccc(Cl)cc12")
96
